Value source: patent US6608073B1

test: Plasma levels of codeine in rats after intravenous or intranasal administration (HPLC); details: rat, plasma, iv, 10 mg/kg
parameter-measured: concentration at 0 min (ng/mL)

1. COc1ccc2c3c1O[C@H]1[C@@H](O)C=C[C@H]4[C@@H](C2)N(C)CC[C@@]341 : 19400

----------
experiment: Plasma levels of codeine in rats after intravenous or intranasal administration (HPLC); details: rat, plasma, other: intranasal, 10 mg/kg
parameter-measured: concentration at 10 min (ng/mL)

1. COc1ccc2c3c1O[C@H]1[C@@H](O)C=C[C@H]4[C@@H](C2)N(C)CC[C@@]341 : 7620

----------
assay: Plasma levels of codeine in rats after intravenous or intranasal administration (HPLC); details: rat, plasma, other: intranasal, 10 mg/kg
parameter-measured: concentration at 2 min

1) COc1ccc2c3c1O[C@H]1[C@@H](O)C=C[C@H]4[C@@H](C2)N(C)CC[C@@]341 [Codeine] : 1400 ng/mL
